measurement-target: RAF proto-oncogene serine/threonine-protein kinase (Homo sapiens) (UniProt P04049);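 also: values are mean CRAF kinase inhibition from profiling of the GSK Published Kinase Inhibitor Set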
Sequence (P04049 whole entry): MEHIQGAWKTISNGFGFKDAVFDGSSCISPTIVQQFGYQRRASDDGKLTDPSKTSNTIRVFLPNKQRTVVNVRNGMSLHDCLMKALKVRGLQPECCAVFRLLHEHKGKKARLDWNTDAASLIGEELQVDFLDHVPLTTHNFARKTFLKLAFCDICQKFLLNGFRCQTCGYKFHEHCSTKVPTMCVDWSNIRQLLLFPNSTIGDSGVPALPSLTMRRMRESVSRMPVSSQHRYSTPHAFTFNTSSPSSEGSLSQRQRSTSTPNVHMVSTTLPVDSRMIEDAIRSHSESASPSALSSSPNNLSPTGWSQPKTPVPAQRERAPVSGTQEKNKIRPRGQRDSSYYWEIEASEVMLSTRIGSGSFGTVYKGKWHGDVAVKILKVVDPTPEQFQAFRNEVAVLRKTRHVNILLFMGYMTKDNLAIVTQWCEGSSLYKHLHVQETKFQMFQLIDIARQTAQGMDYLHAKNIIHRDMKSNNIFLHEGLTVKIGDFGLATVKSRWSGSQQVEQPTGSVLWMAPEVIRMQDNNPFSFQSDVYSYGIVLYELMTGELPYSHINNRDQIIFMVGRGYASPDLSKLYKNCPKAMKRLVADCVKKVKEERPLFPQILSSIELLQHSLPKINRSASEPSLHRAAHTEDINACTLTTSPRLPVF
conditions-used: at 0.1 µM
readout-kind: inhibition (%)
One number for each entry, in %.

{"cpd-smiles": "Cc1cc(-c2ccco2)cc(C)c1/C=C/c1cncc(-c2nn[nH]n2)c1", "inhibition [%]": -1.69}

For each of the compounds below, state inhibition.
1. CCn1c(-c2nonc2N)nc2c(C#CC(C)(C)O)nc(O[C@@H](CN)c3ccccc3)cc21
2. NC(=O)c1sc(-n2cnc3cc(C(F)(F)F)ccc32)cc1OCc1ccccc1Br
3. CCn1c(-c2nonc2N)nc2c(C#CCN)ncc(OCCCN)c21
4. CCn1c(-c2nonc2N)nc2c(C#CC(C)(C)O)ncc(OC[C@@H]3CCCN3)c21

Data returned:
1. -3.13
2. 1.82
3. 2.59
4. 3.13
